Source of measurements: ChEMBL document CHEMBL3739278

experiment: Antiproliferative activity against human MGC803 cells assessed as cell growth inhibition after 48 hrs by MTT assay
Format: functional, cell-based
settings: MGC-803, 48 h
Please assign N whenever IC50 is at or above 9 µM, and Y whenever it is below.

{"smilesData": "Cc1ccc(NC(=O)NC(=O)c2ccc(OCc3ccccc3Cl)cc2)cc1-c1nc2ccccc2[nH]1", "category": "N"}
{"smilesData": "O=C(NC(=S)Nc1ccc(Cl)c(-c2nc3ccccc3[nH]2)c1)c1ccc(OCc2ccc(Cl)cc2Cl)cc1", "category": "Y"}
{"smilesData": "Cc1ccc(NC(=O)NC(=O)c2ccc(OCc3ccccc3)cc2)cc1-c1nc2ccccc2[nH]1", "category": "N"}
{"smilesData": "COc1cc(C(=O)NC(=S)Nc2cccc(NC(=O)c3ccccc3)c2)cc(OC)c1OC", "category": "Y"}
{"smilesData": "Cc1ccc(NC(=O)NC(=O)c2ccc(OCc3cccc(C(F)(F)F)c3)cc2)cc1-c1nc2ccccc2[nH]1", "category": "N"}
{"smilesData": "Cc1ccc(NC(=S)NC(=O)c2ccc(OCc3cccc(Cl)c3Cl)cc2)cc1-c1nc2ccccc2[nH]1", "category": "N"}
{"smilesData": "Cc1ccc(NC(=S)NC(=O)c2ccc(OCc3ccc(Cl)c(Cl)c3)cc2)cc1-c1nc2ccccc2[nH]1", "category": "Y"}
{"smilesData": "Cc1ccc(NC(=S)NC(=O)c2ccc(OCc3ccc(F)cc3)cc2)cc1-c1nc2ccccc2[nH]1", "category": "Y"}
